test description: PAMPA with and without potassium salt
Format: in vitro ADME
measurement parameters: PAMPA, pH 7.4, PAMPA, + 100 mM KCl (100.27 mM K+), PBS pH 7.4 with 5% DMSO, 10 μM compound, approx. 17 hours, 25 °C; read-out: Average Permeability with standard deviation in brackets
measured metric: Papp (×10⁻⁶ cm/s)

- compound: "CC(C)CC1C(=O)OC(Cc2ccccc2)C(=O)N(C)C(CC(C)C)C(=O)OC(C)C(=O)N(C)C(CC(C)C)C(=O)OC(Cc2ccccc2)C(=O)N(C)C(CC(C)C)C(=O)OC(C)C(=O)N1C (stereo not shown) [PF1022A (1)]"
  measured metric: "Papp"
  val: 0.02

* * *

test description: PAMPA with and without potassium salt
Assay type: in vitro ADME
measurement parameters: PAMPA, pH 7.4; 10 μM standard in donor solutions, with and without 100 mM KCl; read-out: Permeability of PAMPA control

- compound: "NC(=O)N1c2ccccc2C=Cc2ccccc21 [Carbamazepine, carbamazepine, reference compound]"
  Papp at 10 µM: "7.94 to 11.1 ×10⁻⁶ cm/s"

* * *

test description: PAMPA with and without potassium salt
Format: in vitro ADME
measurement parameters: PAMPA, without additional KCl (0.27 mM K+), PBS pH 7.4 with 5% DMSO, 10 μM compound, approx. 17 hours, 25 °C; read-out: Average Permeability with standard deviation in brackets

- mol smiles: "CC(C)C[C@H]1C(=O)O[C@H](Cc2ccccc2)C(=O)N(C)[C@@H](CC(C)C)C(=O)O[C@H](C)C(=O)N(C)N(CC(C)C)C(=O)O[C@H](Cc2ccccc2)C(=O)N(C)N(CC(C)C)C(=O)O[C@H](C)C(=O)N1C"
  unit: "×10⁻⁶ cm/s"
  Papp at 10 µM: 0.08

* * *

test description: PAMPA with and without potassium salt
Type: in vitro ADME
measurement parameters: PAMPA, pH 7.4; 10 μM standard in donor solutions, with and without 100 mM KCl; read-out: Recovery rate of PAMPA control
measured metric: recovery at 10 μM

- molecule: "NC(=O)N1c2ccccc2C=Cc2ccccc21 [Carbamazepine, carbamazepine, reference compound]"
  val: "85.4 to 200%"

Hello, the source for this data is paper PMC7796559, in case you need it.
